target: Follistatin (Homo sapiens); experiment: follistatin binders on small-molecule microarrays, primary screen, biochemical, small-molecule microarray, 635/667 nm fluorescence (AID 1132); conditions: FST binding, 635 nm fluorescence, higher = more signal
measured-parameter: composite z-score

>>> reported_result("CC(C)C[C@@H]1NC(=O)C([C@@H](C)OCc2ccccc2)NC(=O)[C@@]23C(=O)N[C@@H](Cc4ccccc4)C2[C@H](C)[C@@]2(C)O[C@H]2C3/C=C/CC/C=C/CNC1=O (stereo partly drawn)")
0.761
>>> reported_result("COCCOC(=O)N1C(=O)[C@@]2(c3cc(C#CC4=CCCCC4)ccc31)[C@H](C(=O)N1CCN(c3ncccn3)CC1)[C@H]1C(=O)O[C@H](c3ccccc3)[C@H](c3ccccc3)N1[C@@H]2c1ccccc1OCCO")
1.18
>>> reported_result("Cc1ccc(F)cc1S(=O)(=O)N[C@@H]1CCN(Cc2ccc3c(c2)OCO3)C1")
0.491

Cited source: PubChem BioAssay
